Assay: AUClast in Sprague-Dawley rat at 10 mg/kg, po measured upto 24 hrs by LC-MS/MS analysis
Format: ADME, organism-based
Parameters: route oral, dose 10 mg/kg, time <=24
Conditions: in vivo

sampleSmiles: C=CC(=O)Nc1ccccc1Nc1ccc2c(C(=O)c3cc(OC)cc(OC)c3)c[nH]c2n1
AUC(0-t) at 24 h, ng·h/mL: 206

* * *

Assay: Half life in Sprague-Dawley rat at 10 mg/kg, po measured upto 24 hrs by LC-MS/MS analysis
Format: ADME, organism-based
Settings: in vivo
outcomeMeasure: half-life (h)

sampleSmiles: C=CC(=O)Nc1ccccc1Nc1ccc2c(C(=O)c3cc(OC)cc(OC)c3)c[nH]c2n1
outcomeMeasure: half-life
numericReadout: 7.71

Reference for the values: ChEMBL document CHEMBL4673307
